Target: SMAD4R361H-SMAD3 complex (Homo sapiens, UniProt Q13485, R361H)
Sequence (Q13485 whole entry R361H): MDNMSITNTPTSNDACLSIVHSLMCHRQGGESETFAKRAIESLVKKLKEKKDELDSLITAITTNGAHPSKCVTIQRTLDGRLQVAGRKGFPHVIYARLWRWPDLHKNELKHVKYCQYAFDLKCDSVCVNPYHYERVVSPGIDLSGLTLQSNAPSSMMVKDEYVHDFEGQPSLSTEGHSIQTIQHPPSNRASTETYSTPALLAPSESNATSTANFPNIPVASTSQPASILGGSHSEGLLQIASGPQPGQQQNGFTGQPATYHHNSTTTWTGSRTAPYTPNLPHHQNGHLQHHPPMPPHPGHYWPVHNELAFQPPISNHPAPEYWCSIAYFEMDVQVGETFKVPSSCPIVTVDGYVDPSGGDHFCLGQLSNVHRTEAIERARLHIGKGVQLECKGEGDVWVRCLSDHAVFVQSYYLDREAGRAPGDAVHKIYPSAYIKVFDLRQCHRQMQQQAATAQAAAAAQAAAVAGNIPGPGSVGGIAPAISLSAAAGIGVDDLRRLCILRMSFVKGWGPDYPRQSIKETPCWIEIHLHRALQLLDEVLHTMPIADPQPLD
Sequence (P84022 whole entry partner): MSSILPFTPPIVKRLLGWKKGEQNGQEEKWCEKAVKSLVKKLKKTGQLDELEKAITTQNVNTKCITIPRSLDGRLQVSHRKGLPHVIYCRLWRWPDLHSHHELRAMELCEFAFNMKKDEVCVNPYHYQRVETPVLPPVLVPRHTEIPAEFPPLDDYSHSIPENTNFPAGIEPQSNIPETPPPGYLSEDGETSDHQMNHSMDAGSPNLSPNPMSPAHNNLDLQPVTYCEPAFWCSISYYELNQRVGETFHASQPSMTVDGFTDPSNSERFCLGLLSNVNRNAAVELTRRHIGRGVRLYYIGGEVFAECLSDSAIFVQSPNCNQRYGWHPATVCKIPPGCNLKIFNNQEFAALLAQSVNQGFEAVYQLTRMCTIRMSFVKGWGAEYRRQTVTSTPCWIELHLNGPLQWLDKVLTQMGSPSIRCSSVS
Assay: GST beads pull-down assay of SMAD4R361H-SMAD3 complex formation
Conditions: cell lysate treated with compound, read-out: EC50, amount of SMAD3 in the SMAD4R361H complex
Attribute: EC50
Respond numerically; units are µM and should not be typed.

Cn1cc(C2=C(c3cn(CCCSC(=N)N)c4ccccc34)C(=O)NC2=O)c2ccccc21; 2.1

--- query ---
Query: I'd like to know its EC50. The molecule in question is `COc1ccc2c(c1)c(C1=C(c3c[nH]c4ccccc34)C(=O)NC1=O)cn2CCCN(C)C`
Reply: 8.9

---

Target: His-SMAD4R361H/Flag-SMAD3 PPI (Homo sapiens, UniProt Q13485, R361H)
Sequence (Q13485 whole entry R361H): as the sequence (Q13485 whole entry R361H) above
Sequence (P84022 whole entry partner): as the sequence (P84022 whole entry partner) above
Test: TR-FRET assay of the SMAD4R361H/SMAD3 protein-protein interaction in cell lysate
Conditions: dose-response, read-out: EC50, increase of the TR-FRET signal of SMAD4R361H-SMAD3 PPI
Value Kind: pEC50
Notebook: values listed as pEC50 are -log10 of the concentration (mol/L).

COc1ccc2c(c1)c(C1=C(c3c[nH]c4ccccc34)C(=O)NC1=O)cn2CCCN(C)C; 4.82

--- query ---
Query: I'd like to know its pEC50. The compound in question is `Cn1cc(C2=C(c3cn(CCCSC(=N)N)c4ccccc34)C(=O)NC2=O)c2ccccc21`
Reply: 5.41
